Molecular target: T1, GST-PHD1 (S287-K347) of KDM5A (human, UniProt P29375 287-347)
T1 chain: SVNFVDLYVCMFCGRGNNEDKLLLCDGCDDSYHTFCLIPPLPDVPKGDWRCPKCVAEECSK
Assay: FP; H3R8me2a (asymmetric dimethyl)
Where no end group is shown, it is not given here.
measurement.label: pKd
FYI, pKd means -log10 of a concentration in mol per litre.

**Query** Item under review: ARTKQTARKS (also: methylated Arg8, degree of methylation not given here) [H3 10mer peptide methylated at R8] . Reported pKd?
**Result** 5.74
